target: HIF-2α HIS TAG-PASB Domain (Homo sapiens, UniProt Q99814); construct: 100 nM HIF-2α HIS TAG-PASB Domain; experiment: HIF-2α Scintillation Proximity Assay (SPA); format: binding; conditions: read-out: Scintillation Proximity Assay IC50
Sequence (Q99814 240-350 limits assumed): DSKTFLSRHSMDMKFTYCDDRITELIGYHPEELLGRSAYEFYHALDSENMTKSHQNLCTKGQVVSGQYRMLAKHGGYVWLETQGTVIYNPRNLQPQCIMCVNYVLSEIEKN
pIC50: −log10 of the molar value.
Listed here: items and their measured pIC50.

Some compounds with recorded pIC50:
CS(=O)(=O)c1ccc(Oc2cncc(F)c2)c2c1[C@H](O)C(F)(F)[C@H]2F	< 6.00
CC(Oc1ccc(S(=O)(=O)C(F)(F)F)c2c1CC(F)(F)C2O)C(=O)O (stereo not drawn)	< 6.00
O=S(=O)(c1ccc(Oc2cc(F)cc(CO)c2)c(Br)c1)C(F)(F)F	< 6.00
N#Cc1cccc(Oc2ccc(S(=O)(=O)C(F)(F)F)cc2Br)c1	6.60 to 7.30
O=C1c2c(C(F)(F)F)ccc(OCC(F)F)c2CC1(F)F	< 6.00
O/N=C1/c2c(C(F)(F)F)ccc(OCC(F)F)c2CC1(F)F	6.00 to 6.60
N#Cc1c(Oc2cc(F)cc(Cl)c2)ccc(S(=O)(=O)C(F)(F)F)c1C(=O)O	< 6.00
N#Cc1cc(Oc2ccc(S(=O)(=O)C(F)F)c3c2CC(F)(F)[C@H]3O)ccc1F	> 7.30

Lab note: next compound to report on.
So what's the measured pIC50 for this one? "O=S(=O)(c1ccc(OC2CCOCC2)c2c1[C@H](O)C(F)(F)C2)C(F)F" > 7.30

====

Molecular target: HIF-2α HIS TAG-PASB Domain (Homo sapiens)
Construct: 100 nM HIF-2α HIS TAG-PASB Domain
Assay: HIF-2α Scintillation Proximity Assay (SPA)
Assay type: binding
Details: read-out: Scintillation Proximity Assay IC50
Description: The total assay volume was about 100 μL in the following configuration: 2 μL compound in 100% DMSO, 88 μL buffer with protein and probe and 10 μL of SPA beads. […] The percent inhibition was determined and IC50 values were calculated using the Dotmatics system based on the following equation: % inhibition=[(high control−sample)/(high control−low control)]×100.
pIC50: −log10 of the molar value.
pIC50 listing for selected molecules.

Field: example entries. Status: answers known.
O=S(=O)(c1ccc(OC2COC2)c2c1[C@H](O)C(F)(F)C2)C(F)(F)F	6.60 to 7.30
O=S(=O)(c1ccc(CC2CCCCC2)c2c1C(O)C(F)(F)C2)C(F)(F)F (stereo not drawn)	> 7.30
N#Cc1cncc(Oc2ccc(S(N)(=O)=O)c3c2[C@@H](F)C(F)(F)[C@H]3O)c1	> 7.30
CC1(C)CC[C@@H](O)[C@H](c2ccc(S(=O)(=O)C(F)(F)F)c3c2CC(F)(F)[C@H]3O)C1	6.60 to 7.30
O=S(=O)(c1ccc(Oc2cc(F)cc(Cl)c2)c(Cl)c1CNCC(F)(F)F)C(F)F	< 6.00

pIC50 for "O=C1c2c(S(=O)(=O)C(F)F)ccc(Oc3ccc(F)c(Br)c3)c2CC1(F)F" ? 6.00 to 6.60

// query: "O[C@H]1c2c(OCC(F)F)ccc(C(F)(F)F)c2[C@@H](F)C1(F)F" < 6.00

Could you do the same for COC(=O)c1c([S+]([O-])C(F)F)ccc(Oc2cc(F)cc(Cl)c2)c1Br (stereo not drawn) , please? < 6.00

// repeat for "CS(=O)(=O)c1ccc(OCC(F)F)c2c1[C@H](O)C(F)(F)[C@@H]2F" and report 6.60 to 7.30
